# Assayed System: voltage-dependent T-type calcium channel subunit alpha-1G (Cav3.2) (Homo sapiens)
# Sequence (O95180 whole entry): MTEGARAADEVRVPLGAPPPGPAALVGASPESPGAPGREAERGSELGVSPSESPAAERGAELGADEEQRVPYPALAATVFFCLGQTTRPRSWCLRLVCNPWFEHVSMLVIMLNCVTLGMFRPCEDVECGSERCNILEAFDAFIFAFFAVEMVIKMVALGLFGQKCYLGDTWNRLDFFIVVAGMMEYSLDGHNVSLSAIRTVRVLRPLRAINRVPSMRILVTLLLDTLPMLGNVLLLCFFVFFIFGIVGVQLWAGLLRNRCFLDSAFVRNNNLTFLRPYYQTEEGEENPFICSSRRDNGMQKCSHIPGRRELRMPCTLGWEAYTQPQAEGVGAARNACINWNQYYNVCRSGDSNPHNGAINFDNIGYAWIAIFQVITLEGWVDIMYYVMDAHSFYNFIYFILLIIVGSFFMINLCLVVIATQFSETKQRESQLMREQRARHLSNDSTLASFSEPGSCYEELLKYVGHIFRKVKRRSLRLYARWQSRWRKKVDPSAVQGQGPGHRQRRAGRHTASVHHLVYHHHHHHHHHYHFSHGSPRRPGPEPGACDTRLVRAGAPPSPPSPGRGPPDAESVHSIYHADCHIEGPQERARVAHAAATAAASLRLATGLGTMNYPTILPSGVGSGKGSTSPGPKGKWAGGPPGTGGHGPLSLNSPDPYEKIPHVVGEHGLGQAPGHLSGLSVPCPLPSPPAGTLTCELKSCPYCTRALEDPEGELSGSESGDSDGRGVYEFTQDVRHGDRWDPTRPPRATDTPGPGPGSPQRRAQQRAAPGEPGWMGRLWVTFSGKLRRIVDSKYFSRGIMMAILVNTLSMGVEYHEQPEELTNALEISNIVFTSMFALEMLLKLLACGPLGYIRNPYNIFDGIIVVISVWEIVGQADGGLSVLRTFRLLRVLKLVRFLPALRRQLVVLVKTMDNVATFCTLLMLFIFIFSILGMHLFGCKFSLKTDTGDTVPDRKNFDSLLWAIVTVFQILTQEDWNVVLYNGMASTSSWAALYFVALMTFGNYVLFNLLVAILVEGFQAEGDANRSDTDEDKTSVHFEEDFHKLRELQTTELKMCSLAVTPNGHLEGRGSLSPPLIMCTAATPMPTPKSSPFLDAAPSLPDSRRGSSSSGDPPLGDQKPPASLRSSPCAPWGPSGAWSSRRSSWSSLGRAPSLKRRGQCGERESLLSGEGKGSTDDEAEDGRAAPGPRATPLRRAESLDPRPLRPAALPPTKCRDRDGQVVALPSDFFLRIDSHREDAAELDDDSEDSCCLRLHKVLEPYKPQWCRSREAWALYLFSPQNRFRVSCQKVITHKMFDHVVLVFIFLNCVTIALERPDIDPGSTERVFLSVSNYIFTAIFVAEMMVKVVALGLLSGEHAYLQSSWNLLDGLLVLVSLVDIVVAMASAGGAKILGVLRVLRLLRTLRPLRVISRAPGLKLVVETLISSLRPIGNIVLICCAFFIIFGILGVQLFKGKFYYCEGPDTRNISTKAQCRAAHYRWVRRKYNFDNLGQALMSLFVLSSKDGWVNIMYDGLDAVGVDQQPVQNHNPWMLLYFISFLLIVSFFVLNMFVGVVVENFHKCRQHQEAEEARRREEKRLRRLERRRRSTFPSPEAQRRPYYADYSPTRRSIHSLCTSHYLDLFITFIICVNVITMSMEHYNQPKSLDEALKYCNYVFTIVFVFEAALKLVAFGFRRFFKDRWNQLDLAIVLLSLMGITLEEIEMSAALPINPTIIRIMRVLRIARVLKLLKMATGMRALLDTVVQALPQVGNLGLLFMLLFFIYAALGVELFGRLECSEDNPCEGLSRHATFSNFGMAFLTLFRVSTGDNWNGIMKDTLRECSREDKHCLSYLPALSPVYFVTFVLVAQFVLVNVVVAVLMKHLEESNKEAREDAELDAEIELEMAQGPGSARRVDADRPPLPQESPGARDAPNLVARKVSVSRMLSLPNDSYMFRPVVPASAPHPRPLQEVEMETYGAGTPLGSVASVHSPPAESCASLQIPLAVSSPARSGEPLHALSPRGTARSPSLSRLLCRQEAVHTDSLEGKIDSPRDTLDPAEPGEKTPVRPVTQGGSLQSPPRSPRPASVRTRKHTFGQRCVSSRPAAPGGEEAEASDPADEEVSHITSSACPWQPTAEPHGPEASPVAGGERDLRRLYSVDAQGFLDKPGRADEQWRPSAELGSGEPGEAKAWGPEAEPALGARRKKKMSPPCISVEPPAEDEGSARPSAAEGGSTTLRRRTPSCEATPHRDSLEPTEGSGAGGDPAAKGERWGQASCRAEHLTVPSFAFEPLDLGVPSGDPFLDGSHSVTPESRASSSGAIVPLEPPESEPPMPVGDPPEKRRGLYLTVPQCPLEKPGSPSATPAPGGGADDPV
# Protocol Details: FLIPR calcium flux assay, HEK293 cells recombinantly expressing Cav3.2
# Assay Conditions: Cav3.2-channel, Fluo-4-AM, 3 min incubation, stimulation with 10 mM CaCl2
Measured Attribute: IC50 (nM)

Some entries whose results are on file:
> print(dat)
                                   compound  quantity.unit  reported.value
1  COC1(c2ccc(CC(=O)Nc3ccn(Cc4ccc(F)c(F)c4)n3)cc2)COC1 [Example 231]             nM              21
2  Cc1cc(Cn2ccc(NC(=O)Cc3ccc(N(C)C)cc3)n2)cc(C)c1F [Example 25]             nM              64
3  Cn1ncc2ccc(CC(=O)Nc3ccn(Cc4ccc(C#N)c(F)c4)n3)cc21 [Example 291]             nM              80
4  N#Cc1ccc(Cn2ccc(NC(=O)Cc3ccc(N4CCCC4)nc3)n2)cc1 [Example 176]             nM              67
5  O=C(Cc1ccc(N2CC(F)C2)nc1)Nc1ccn(Cc2ccc(F)cc2)n1 [Example 162]             nM              64
6  O=C(Cc1ccc(C2(O)COC2)cc1)Nc1ccn(Cc2ccc(F)c(F)c2)n1 [Example 226]             nM              25

[1] CCN(CC)c1ccc(CC(=O)Nc2ccn(Cc3ccc(F)cc3)n2)cn1 [Example 190]
[2] Cc1cc(CC(=O)Nc2ccn(Cc3ccc(F)c(C#N)n3)n2)cnc1OCC(F)(F)F [Example 418]
[3] Cn1cc(C2CCC2)c2cc(CC(=O)Nc3ccn(Cc4ccc(F)c(C#N)c4)n3)ccc21 [Example 327]
Q: Please list these in order of increasing IC50. Thank you! Please reply with the labels ordered as requested. Many thanks.
Ans: 1, 3, 2
(1: 21 nM, 3: 37 nM, 2: 94 nM)
